system-tested: JAK3 (Homo sapiens, UniProt P52333)
protocol-notes: Inhibition of a panel of kinases, in vitro HotSpot kinase assay: JAK3
Format: biochemical
measurement-parameters: E compounds, Table 17; read-out: IC50 JAK3
experimental-endpoint: IC50

Consider the reported IC50 for these molecules:
| molecule | system-tested | IC50 |
| --- | --- | --- |
| C=CC(=O)N1CCC[C@@H](N(C)c2cnc(C(N)=O)c(Nc3ccc(C4(C)CCN(C5CCCC5)CC4)cc3)n2)C1 | JAK3 (Homo sapiens, UniProt P52333) | < 0.01 µM |
| Cn1cc(Nc2nc(N3CCCC(C)(NC(=O)c4ccc(C5CC5)cc4)C3)cnc2C(N)=O)cn1 (stereo not shown) | JAK3 (Homo sapiens, UniProt P52333) | 1 to 10 µM |
| C=CC(=O)N1CCC[C@@H](Nc2nnc(C(N)=O)c(Nc3ccc(-c4ncccn4)cc3)n2)C1 | JAK3 (Homo sapiens, UniProt P52333) | < 0.01 µM |

Let us move to another entry and its IC50.
Incoming: Query the reported IC50 for JAK3 (Homo sapiens, UniProt P52333); item: "Cc1cc(Nc2nc(N3CC[C@H](O)[C@@H](N4CCC[C@@H](Nc5cc(Cl)cc(C(F)(F)F)c5)C4=O)C3)nnc2C(N)=O)sn1"
Outgoing: 1 to 10 µM

---

system-tested: BTK-WT (Homo sapiens, UniProt Q06187)
Construct: purified from insect cells as a full-length construct containing an N-terminal 6X-His tag; His6 (N); made in house; host or cells: insect cells (baculovirus Sf21 in Method B)
Sequence (Q06187 whole entry): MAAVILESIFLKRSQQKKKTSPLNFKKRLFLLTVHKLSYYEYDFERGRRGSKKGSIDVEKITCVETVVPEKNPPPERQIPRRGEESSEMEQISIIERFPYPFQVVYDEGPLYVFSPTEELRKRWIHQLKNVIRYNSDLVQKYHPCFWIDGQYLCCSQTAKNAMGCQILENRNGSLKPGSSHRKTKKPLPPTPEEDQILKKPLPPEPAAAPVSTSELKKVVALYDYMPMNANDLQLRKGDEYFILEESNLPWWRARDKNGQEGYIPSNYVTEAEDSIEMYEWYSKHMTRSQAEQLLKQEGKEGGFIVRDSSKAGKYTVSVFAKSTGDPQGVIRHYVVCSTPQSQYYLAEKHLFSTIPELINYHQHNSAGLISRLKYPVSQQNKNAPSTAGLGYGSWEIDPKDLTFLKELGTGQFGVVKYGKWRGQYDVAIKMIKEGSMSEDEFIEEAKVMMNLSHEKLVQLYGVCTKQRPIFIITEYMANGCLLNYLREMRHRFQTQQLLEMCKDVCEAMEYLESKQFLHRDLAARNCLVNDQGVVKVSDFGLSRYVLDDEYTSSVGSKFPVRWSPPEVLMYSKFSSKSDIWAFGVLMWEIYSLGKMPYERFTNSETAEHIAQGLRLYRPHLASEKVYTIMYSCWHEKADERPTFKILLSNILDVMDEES
protocol-notes: Btk in vitro inhibitory activity (one of Method A TR-FRET, Method B electrophoretic mobility shift, Method C radiometric filter binding)
Format: biochemical
measurement-parameters: D-compounds panel data; read-out: IC50 BTK-WT
experimental-endpoint: IC50

Use these answered entries as a reference point.
| cpd-smiles | IC50 |
| --- | --- |
| C[C@@H]1[C@H](NC(=O)c2ccc(C(C)(C)O)nc2)CCCN1c1nnc(C(N)=O)c(Nc2cnn(C)c2)n1 | ≤ 10 nM |
| C[C@@H]1CC[C@@H](NC(=O)c2ccc(C3CC3)cc2)CN1c1cnc(C(N)=O)c(Nc2cnn(C)c2)n1 | 10 to 100 nM |

Attention now turns to another entry.
Incoming: Given the entry "C[C@@H]1[C@H](NC(=O)c2ccc(C3CC3)cc2)CCCN1c1cnc(C(N)=O)c(Nc2cnn(CCN(C)C)c2)n1" , report its measured IC50.
Outgoing: 10 to 100 nM

---

Provide the recorded IC50 for the entries that follow.
system-tested: JAK3 (Homo sapiens, UniProt P52333)
protocol-notes: Inhibition of a panel of kinases, in vitro HotSpot kinase assay: JAK3
Format: biochemical
measurement-parameters: D-compounds panel data; 1 μM ATP; read-out: IC50 JAK3

Reference set, count: 2
| molecule | IC50 |
| --- | --- |
| C[C@@H]1[C@H](NC(=O)N(C)C)CCCN1c1cnc(C(N)=O)c(Nc2ccc(CN3CCN(C)CC3)cc2)c1 | 1 to 10 µM |
| CCn1cc(Nc2nc(N3CCC[C@@H](NC(=O)c4ccc(C5CC5)cc4)[C@H]3C)cnc2C(N)=O)cn1 | 1 to 10 µM |

Hi there! I need IC50 for each item below, if you can.
1. C[C@@H]1[C@H](NC(=O)c2ccc(C3CC3)cc2)CCCN1c1cnc(C(N)=O)c(Nc2ccc3c(c2)OC(F)(F)O3)n1
2. C[C@@H]1[C@H](NC(=O)c2ccc(C3CC3)cc2)CCCN1c1cnc(C(N)=O)c(Nc2cnn(CC3CCC(F)(F)CC3)c2)n1
3. COc1cc(C(=O)N[C@@H]2CCCN(c3cnc(C(N)=O)c(Nc4cnn(C)c4)n3)[C@@H]2C)ccc1C1CC1
4. Cc1nsc(Nc2nc(N3CCC[C@@H](NC(=O)N(C)C)[C@H]3C)cnc2C(N)=O)c1C
5. Cc1cc(Nc2nc(N3CCC[C@@H](NC(=O)c4ccc(C(C)(C)O)cc4)[C@H]3C)cnc2C(N)=O)sn1

Outgoing:
1: > 10 µM; 2: > 10 µM; 3: > 10 µM; 4: > 10 µM; 5: 0.1 to 1 µM

---

system-tested: ITK (Homo sapiens)
Sequence (Q08881 whole entry): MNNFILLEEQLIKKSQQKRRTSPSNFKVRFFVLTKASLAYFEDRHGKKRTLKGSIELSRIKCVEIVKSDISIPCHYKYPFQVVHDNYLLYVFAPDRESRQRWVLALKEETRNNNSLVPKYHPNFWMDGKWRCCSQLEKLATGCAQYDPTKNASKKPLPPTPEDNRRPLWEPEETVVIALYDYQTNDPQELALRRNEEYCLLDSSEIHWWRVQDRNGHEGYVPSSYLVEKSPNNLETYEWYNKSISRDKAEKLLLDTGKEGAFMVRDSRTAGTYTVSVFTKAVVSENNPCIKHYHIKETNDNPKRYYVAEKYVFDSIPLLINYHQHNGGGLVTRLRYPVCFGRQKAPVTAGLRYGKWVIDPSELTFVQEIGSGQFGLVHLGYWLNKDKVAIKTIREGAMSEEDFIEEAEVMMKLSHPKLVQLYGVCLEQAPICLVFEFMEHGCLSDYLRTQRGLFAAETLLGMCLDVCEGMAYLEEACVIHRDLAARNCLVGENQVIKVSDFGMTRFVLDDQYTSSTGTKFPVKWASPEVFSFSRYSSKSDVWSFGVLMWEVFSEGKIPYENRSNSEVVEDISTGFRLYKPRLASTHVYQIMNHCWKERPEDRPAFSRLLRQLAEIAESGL
protocol-notes: Inhibition of a panel of kinases, in vitro HotSpot kinase assay: ITK
Assay type: biochemical
measurement-parameters: Table 13, A compounds; 1 μM ATP
pIC50: −log10 of the molar value.
experimental-endpoint: pIC50

Need pIC50 for each of these compounds.
1. C[C@@H]1[C@H](NC(=O)c2ccc(C3CC3)cc2F)CCCN1c1cnc(C(N)=O)c(Nc2ccc(N3CCN(C)C[C@@H]3C)cc2)n1
2. CN1CCC(n2cc(Nc3nc(N4CCC[C@@H](n5ccc6cc(C7CC7)ccc6c5=O)C4)cnc3C(N)=O)cn2)CC1
3. C[C@@H]1[C@H](NC(=O)c2ccc(C3CC3)c(Cl)c2)CCCN1c1cnc(C(N)=O)c(Nc2ccc(N3CCN(C)CC3)cc2)n1
4. C[C@@H]1[C@H](NC(=O)c2ccc(C3CC3)cc2F)CCCN1c1cnc(C(N)=O)c(Nc2cc(CN3CCOCC3)ns2)n1
5. COCCn1cc(Nc2nc(N3CCC[C@@H](NC(=O)c4ccc(C5CC5)cc4)[C@H]3C)cnc2C(N)=O)cn1
6. Cn1cc(Nc2nc(N3C[C@@H](NC(=O)c4ccc(C5CC5)cc4)CC(F)(F)C3)cnc2C(N)=O)cn1
7. C[C@@H]1[C@H](NC(=O)N(C)C)CCCN1c1cnc(C(N)=O)c(Nc2ccc(N3CCN(C)CC3)cc2)n1
8. C[C@@H]1[C@H](NC(=O)c2ccc(C3CC3)cc2F)CCCN1c1cnc(C(N)=O)c(Nc2ccc(S(=O)(=O)N3CCN(C)CC3)cc2)n1

Outgoing:
6.00 to 7.00
6.00 to 7.00
6.00 to 7.00
6.00 to 7.00
6.00 to 7.00
< 5.00
6.00 to 7.00
6.00 to 7.00

---

system-tested: JAK3 (Homo sapiens)
Sequence (P52333 1-1124): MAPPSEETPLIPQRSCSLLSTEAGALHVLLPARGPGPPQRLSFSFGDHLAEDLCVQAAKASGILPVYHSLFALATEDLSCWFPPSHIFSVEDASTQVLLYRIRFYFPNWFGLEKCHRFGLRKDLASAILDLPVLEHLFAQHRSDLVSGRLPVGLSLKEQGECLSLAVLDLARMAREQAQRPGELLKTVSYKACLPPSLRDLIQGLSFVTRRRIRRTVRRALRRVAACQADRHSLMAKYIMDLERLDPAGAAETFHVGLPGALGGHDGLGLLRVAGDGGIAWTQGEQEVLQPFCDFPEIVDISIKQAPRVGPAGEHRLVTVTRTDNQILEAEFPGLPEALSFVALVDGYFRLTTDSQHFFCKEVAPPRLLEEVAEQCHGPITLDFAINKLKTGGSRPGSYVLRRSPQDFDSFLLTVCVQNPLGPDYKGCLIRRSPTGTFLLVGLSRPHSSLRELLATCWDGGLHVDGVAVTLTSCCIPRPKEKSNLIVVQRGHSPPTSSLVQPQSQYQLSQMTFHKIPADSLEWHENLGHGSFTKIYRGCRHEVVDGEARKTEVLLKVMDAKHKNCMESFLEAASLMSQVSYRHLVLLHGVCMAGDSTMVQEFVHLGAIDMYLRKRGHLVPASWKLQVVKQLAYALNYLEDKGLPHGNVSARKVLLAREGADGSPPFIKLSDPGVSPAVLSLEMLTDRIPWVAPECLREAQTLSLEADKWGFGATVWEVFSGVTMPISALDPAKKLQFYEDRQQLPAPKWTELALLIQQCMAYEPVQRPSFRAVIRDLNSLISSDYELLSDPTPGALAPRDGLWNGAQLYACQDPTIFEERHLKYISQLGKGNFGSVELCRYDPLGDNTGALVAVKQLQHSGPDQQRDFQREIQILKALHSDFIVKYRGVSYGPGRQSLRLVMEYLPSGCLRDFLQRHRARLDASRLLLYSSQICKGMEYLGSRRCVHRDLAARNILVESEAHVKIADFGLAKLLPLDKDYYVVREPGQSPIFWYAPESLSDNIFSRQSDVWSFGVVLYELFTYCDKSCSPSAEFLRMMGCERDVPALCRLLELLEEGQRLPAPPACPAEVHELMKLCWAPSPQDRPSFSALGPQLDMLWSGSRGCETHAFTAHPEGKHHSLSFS
protocol-notes: Inhibition of a panel of kinases, in vitro HotSpot kinase assay: JAK3
Format: biochemical
measurement-parameters: D-compounds panel data; 1 μM ATP; read-out: IC50 JAK3
experimental-endpoint: IC50

| cpd-smiles | system-tested | IC50 |
| --- | --- | --- |
| Cc1ccc(-c2cnc([C@@H]3CCCN(c4cnc(C(N)=O)c(Nc5cc(C)ns5)n4)C3)[nH]2)cc1 | JAK3 (Homo sapiens) | > 10000 nM |
| Cc1cc(Nc2nc(N3C[C@@H](NC(=O)N(C)C)CC[C@H]3C)cnc2C(N)=O)sn1 | JAK3 (Homo sapiens) | 100 to 1000 nM |
| C[C@@H]1[C@H](NC(=O)c2ccc(C3CC3)cn2)CCCN1c1cnc(C(N)=O)c(Nc2ccc(OC3CCN(C)CC3)cc2)n1 | JAK3 (Homo sapiens) | 100 to 1000 nM |
| C[C@@H]1[C@H](NC(=O)c2ccc(C(C)(C)C)cc2)CCCN1c1cnc(C(N)=O)c(Nc2ccc(OC3CCN(C)CC3)cc2)n1 | JAK3 (Homo sapiens) | 1000 to 10000 nM |
| C[C@@H]1[C@H](N2CCN(C)C2=O)CCCN1c1cnc(C(N)=O)c(Nc2cnn(C)c2)n1 | JAK3 (Homo sapiens) | 100 to 1000 nM |

Could I get IC50 for every one of these entries?
1. Cc1cc(Nc2nc(N3C[C@H](NC(=O)N(C)C)CC[C@H]3C)cnc2C(N)=O)sn1
2. C[C@@H]1[C@H](NC(=O)c2ccc(C3CC3)cc2)CCCN1c1cnc(C(N)=O)c(Nc2cnn(-c3ccncc3)c2)n1
3. Cc1ncc(Nc2nc(N3CCC[C@@H](NC(=O)c4ccc(C5CC5)cc4)[C@H]3C)cnc2C(N)=O)s1
4. C[C@@H]1[C@H](NC(=O)c2ccc(C3(O)CC3)cc2)CCCN1c1cnc(C(N)=O)c(Nc2cnn(C)c2)n1

Outgoing:
1: 1000 to 10000 nM; 2: > 10000 nM; 3: 1000 to 10000 nM; 4: 100 to 1000 nM
